# Test system: K-562 leukemia
# protocol summary: NCI tumour cell line growth inhibition, 48 h
assay endpoint: TGI

Consider the following illustrative entries.
compound	result
CC1=C2[C@@H](c3ccccc3)C3C=CC2(C=C3C(F)(F)F)N(C(=O)NC2CCCCC2)C1=O (stereo partly drawn)	> 100 µM
CC(=O)OCc1cc2c(s1)C(=O)c1sccc1C2=O	> 100 µM
c1csc(-c2[nH]nc3c2CCc2ccccc2-3)c1	68.6 µM
O=C1COc2c(CCNCCN(C(=O)CCNCCc3ccc(Cl)c(Cl)c3)C3CCCCC3)ccc(O)c2N1	34.1 µM
NS(=O)(=O)C1CCCCC1C(=O)NNC(=O)C(=O)Nc1nc(=S)[nH][nH]1 (stereo not drawn)	> 100 µM

QUERY: Output measured TGI for this item: `CCOP(=O)(OCC)/C(C#N)=C(\C)c1ccco1`
RESULT: > 10 µM

Where do the numbers come from? From PubChem BioAssay (NCI).
